Just for reference, ChEMBL document CHEMBL1201862 is where these values come from.

System: RPMI-8226
Assay: NCI tumour cell line growth inhibition, 48 h
The source made the active and inactive calls. No stated cut-off is given here; in the data, active = GI50 up to about 1.1 µM and inactive = higher.
Classes used: 1 (active), 0 (inactive)

[[record]]
compound = "Cc1ccc(C)n1-c1ccccc1C1SCCCS1"
group = 0

[[record]]
compound = "CCn1cc(C(=O)O)c(=O)c2cc(F)c(N3CCN(CN4C(=O)/C(=N\\c5ncc(Cc6cc(OC)c(OC)c(OC)c6)c(N)n5)c5cc(Cl)ccc54)CC3)cc21"
group = 1

[[record]]
compound = "CC(C)=CC(=O)OC1C2C(C)C(=O)OC2C(O)C(C)C2C=CC(=O)C21C (configuration not stated)"
group = 0

[[record]]
compound = "ClC1=NN=C(c2c[nH]c3ccccc23)CC1NCc1ccccc1 (configuration not stated)"
group = 0

[[record]]
compound = "OC(c1nc2ccccc2s1)(C(F)(F)F)C(F)(F)F"
group = 0

[[record]]
compound = "O=C(/C=C\\c1ccc([N+](=O)[O-])cc1)c1ccccc(=O)c1O"
group = 1

[[record]]
compound = "COc1ccc(/C(Cl)=C(\\CN(C)C)c2ccc(OC)c(OC)c2)cc1OC.[B]"
group = 0

[[record]]
compound = "CCCCCCCCCCCCCCCC[N+](C)(C)Cc1ccc(F)cc1"
group = 1

[[record]]
compound = "O=C(c1ccccc1)[C@H]1Nc2ccc(Cl)cc2[C@H]2OCCC[C@@H]12"
group = 0

[[record]]
compound = "C/C=C1\\CC2C(=O)CCC2C2c3ccccc3OC12 (configuration not stated)"
group = 0

[[record]]
compound = "CN(C)CCC(/C=C/c1ccccc1)=N\\Nc1c(F)c(F)c(F)c(F)c1F"
group = 0

[[record]]
compound = "COc1cc(C(O)CCBr)c(OC)cc1C (configuration not stated)"
group = 0

[[record]]
compound = "N#Cc1c(C#N)c(SSc2c(C#N)c(C#N)c(N)n2-c2ccc(F)cc2)n(-c2ccc(F)cc2)c1N"
group = 0

[[record]]
compound = "Nc1cc(Cl)cc2cc(Cl)cnc12"
group = 0

[[record]]
compound = "CSc1ccc(-c2cc(-c3nc4ccccc4[nH]3)nc3[nH]c(-c4nc5ccccc5[nH]4)cc(=O)c23)cc1"
group = 0

[[record]]
compound = "Cc1ccc2c(c1CCCC(C)(C)O)C(=O)C(O)=C(C(C)C)C2=O"
group = 0

[[record]]
compound = "CCCCC(C(=O)N/N=C/c1ccc([N+](=O)[O-])o1)C(=O)N/N=C/c1ccc([N+](=O)[O-])o1"
group = 1

[[record]]
compound = "C[P+](C)(C)c1ccccc1"
group = 0

[[record]]
compound = "CC(=O)NC1C(OCc2ccccc2)OC(CO)C(O)C1OCC(=O)NC(C)C(=O)NC(CCC(=O)NCCCCCNc1c2ccccc2nc2cccc([N+](=O)[O-])c12)C(N)=O (configuration not stated)"
group = 1

[[record]]
compound = "COC(=O)C1Cc2ccc(C)cc2C1=O (configuration not stated)"
group = 0

[[record]]
compound = "Brc1ccc2c3c1[C@@H]1O[C@@H]1c1cccc(c1-3)[C@@H]1O[C@H]21"
group = 0

[[record]]
compound = "Cc1ccc(/C=C2\\CCC/C(=C\\c3ccc(O)c(CN4CCCCC4)c3)C2=O)cc1"
group = 0

[[record]]
compound = "CSc1cc(N)ccc1/N=N/c1ccc(S(N)(=O)=O)cc1"
group = 0

[[record]]
compound = "O=c1n(-c2ccccc2)c(=O)n2n1C1C=CC2CCCCCC1"
group = 0

[[record]]
compound = "CCOC(OC1=C(C#N)CCCC1)C(CC)[Se]c1ccccc1[N+](=O)[O-] (configuration not stated)"
group = 0

[[record]]
compound = "CCCCNC(=S)OCCC(C)CCCC(C)C (configuration not stated)"
group = 0

[[record]]
compound = "CN(C1=NS(=O)(=O)N=C(N(C)c2ccccc2)O1)c1ccccc1"
group = 0

[[record]]
compound = "CCOC(=O)/C=C(\\C(=O)OCC)n1ccc(=O)n(Cc2cn(CCCCOC(C)=O)nn2)c1=O"
group = 0

[[record]]
compound = "Cc1ccc(/N=N/C(=N\\c2ccc(Cl)cc2)c2ccc(N(CCC#N)CCC#N)cc2)cc1"
group = 0

[[record]]
compound = "COc1cc(C2c3cc4c(cc3[C@@H](Nc3ccc(C#N)cc3)C3COC(=O)[C@H]23)OCO4)cc(OC)c1O (some centres not stated)"
group = 1

[[record]]
compound = "O=C(c1cccc(OCc2ccccc2)c1OCc1ccccc1)N1CCSC1=S"
group = 0

[[record]]
compound = "CCCOP(=O)(OCCC)OC(C(F)(F)F)C(F)(F)F"
group = 0

[[record]]
compound = "CC(C)(C)OC(=O)NC1CCCC1C(O)(C1=CCCC1)C1=CCCC1 (configuration not stated)"
group = 0

[[record]]
compound = "C/C(CC(=O)Nc1cccc([N+](=O)[O-])c1)=N\\NC(=O)C[n+]1ccccc1"
group = 0

[[record]]
compound = "CC(C)=CCCC1(C)C=Cc2c(c(C)cc3c2[nH]c2cc(O)ccc23)O1 (configuration not stated)"
group = 0

[[record]]
compound = "O=C1Nc2ccccc2/C1=C1/Nc2ccccc2/C1=N\\OCCNCC(O)C(O)C(O)C(O)CO (configuration not stated)"
group = 0

[[record]]
compound = "CC(C)(C)c1ccc2c(c1)S(=O)(=O)Nc1cccc(c1)NS(=O)(=O)c1cc(C(C)(C)C)ccc1OCCOCCO2"
group = 0


====

Measured GI50 accompanies every entry in the list below.
System: RXF 393
Test: NCI tumour cell line growth inhibition, 48 h
Calls of active or inactive are those of the source. Rule as the data show it: active = GI50 up to about 1.1 µM and inactive = higher.
Assay Endpoint: GI50

[[record]]
molecule = "COc1ccc(C2(CC(C)O)SCCCS2)cc1 (stereo not drawn)"
result = "> 100 µM (inactive)"

[[record]]
molecule = "Cc1cccc(C2NC(=O)c3ccccc3N2)c1 (stereo not drawn)"
result = "4.44 µM (inactive)"

[[record]]
molecule = "O=c1[nH]n(Cc2ccccc2)c2ccc([N+](=O)[O-])cc12"
result = "71.9 µM (inactive)"


====

Tested on: NCI-H460
Experiment: NCI tumour cell line growth inhibition, 48 h
Calls of active or inactive are those of the source. Rule as the data show it: active = GI50 up to about 1.1 µM and inactive = higher.
Labels: T = active, F = inactive

[[record]]
compound = "CCCCNC(=S)OCCC(C)CCCC(C)C (centres undefined)"
group = "F"

[[record]]
compound = "CC[C@@]1(O)C(=O)OCc2c1cc1n(c2=O)Cc2c-1nc1ccccc1c2/C=N\\NC(=O)C(N)CS (some centres undefined)"
group = "T"

[[record]]
compound = "CCN(CC)CC(=O)NC1c2ccccc2Oc2ccccc21"
group = "F"

[[record]]
compound = "CC1=C(C(=O)NNC(=O)C(N)=O)CC(C(=O)NNC(=O)C(N)=O)=C(C)N1"
group = "F"

[[record]]
compound = "COc1cccc2c1-c1ccccc1[C@H](Nc1ccccc1)[C@@]2(C)O"
group = "F"

[[record]]
compound = "O=C1CSC2=NC3=C(COC/C3=C\\c3ccc(F)cc3)C(c3ccc(F)cc3)N12 (centres undefined)"
group = "F"

[[record]]
compound = "CC(=O)Nc1ccc(/C=C/C(=O)c2sc(-c3cccnc3)nc2C)cc1"
group = "F"

[[record]]
compound = "CC(=O)NC1C(OCc2ccccc2)OC(CO)C(O)C1OCC(=O)NC(C)C(=O)NC(CCC(=O)NCCCCCNc1c2ccccc2nc2cccc([N+](=O)[O-])c12)C(N)=O (centres undefined)"
group = "T"

[[record]]
compound = "CCOCc1c(C)cc(C)c(C2C(C(=O)c3ccccc3)N3c4ccccc4C=CC3C2(C#N)C(=O)OCC)c1C (centres undefined)"
group = "F"


====

# GI50 per record follows
Test system: RXF 393
Assay: NCI tumour cell line growth inhibition, 48 h
Calls of active or inactive are those of the source. Rule as the data show it: active = GI50 up to about 1.1 µM and inactive = higher.
Assay Endpoint: GI50

[[record]]
compound = "OC(c1nc2ccccc2s1)(C(F)(F)F)C(F)(F)F"
measured_target = "RXF 393"
result = "> 100 µM (inactive)"

[[record]]
compound = "COC1=CC2(C=CC1=O)CCNC1=C2C(=O)c2nc[nH]c2C1=O (stereo not drawn)"
measured_target = "RXF 393"
result = "> 100 µM (inactive)"

[[record]]
compound = "COc1cc(OC)c(C#N)c(OC)c1C"
measured_target = "RXF 393"
result = "> 100 µM (inactive)"

[[record]]
compound = "O=C1C=CC(=O)c2c(O)c(N(CCCl)CCCl)c(Cl)c(O)c21"
measured_target = "RXF 393"
result = "> 5.2 µM (inactive)"

[[record]]
compound = "COc1ccc(OC)c2sc(N3C(=O)/C(=C/c4ccc(Cl)cc4)N=C3c3ccccc3)nc12"
measured_target = "RXF 393"
result = "78.5 µM (inactive)"

[[record]]
compound = "O=C(NI1OC(=O)c2ccccc21)c1ccc(Cl)cc1"
measured_target = "RXF 393"
result = "> 100 µM (inactive)"

[[record]]
compound = "NNC(=O)CCC(=O)Nc1ccc(Cl)cc1Cl"
measured_target = "RXF 393"
result = "> 100 µM (inactive)"

[[record]]
compound = "O=S(=O)(N=S(c1ccc(Cl)cc1)c1ccc(Cl)cc1)c1ccccc1"
measured_target = "RXF 393"
result = "65.3 µM (inactive)"

